Cited source: patent US20260116991A1

Reported values of koff for individual entries
# assay target: T1, human GPC3-His protein (human, UniProt P51654 25-559)
# T1 construct: also called human GPC3 protein; not shown: His tag
# method description: SPR, antibody captured on Protein A chip, human GPC3-His analyte;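 note: measured at 25 °C flow cell, human GPC3-His injected at five concentrations up to 200 nM, 240 s association, up to 600 s dissociation, double-referenced, fitted to Langmuir 1:1 model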
Lab note: write values as number then unit, every time.

binder="F1.3.9 (antibody, human IgG1, kappa, V domains shown, Human-murine chimeric antibody) VH: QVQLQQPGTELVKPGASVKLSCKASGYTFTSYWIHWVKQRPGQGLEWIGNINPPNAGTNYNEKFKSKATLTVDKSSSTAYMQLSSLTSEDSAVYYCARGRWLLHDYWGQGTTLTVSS VL: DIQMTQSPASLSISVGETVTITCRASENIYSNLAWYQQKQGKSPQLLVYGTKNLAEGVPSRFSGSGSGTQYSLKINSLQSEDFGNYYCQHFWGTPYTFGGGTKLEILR" recorded_value="7.28e-05 s⁻¹"
binder="F4.18.4 (antibody, human IgG1, kappa, V domains shown, Human-murine chimeric antibody) VH: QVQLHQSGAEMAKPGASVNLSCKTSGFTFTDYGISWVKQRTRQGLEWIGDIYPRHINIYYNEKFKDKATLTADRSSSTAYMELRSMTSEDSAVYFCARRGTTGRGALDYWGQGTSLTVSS VL: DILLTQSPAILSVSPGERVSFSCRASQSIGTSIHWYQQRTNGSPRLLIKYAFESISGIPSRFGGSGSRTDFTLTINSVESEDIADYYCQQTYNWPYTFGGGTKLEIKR" recorded_value="0.000443 s⁻¹"
binder="F1.145.22 (antibody, human IgG1, kappa, V domains shown, Human-murine chimeric antibody) VH: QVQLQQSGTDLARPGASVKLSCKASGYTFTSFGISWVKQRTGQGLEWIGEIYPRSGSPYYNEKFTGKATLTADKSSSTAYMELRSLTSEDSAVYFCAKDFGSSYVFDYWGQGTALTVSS VL: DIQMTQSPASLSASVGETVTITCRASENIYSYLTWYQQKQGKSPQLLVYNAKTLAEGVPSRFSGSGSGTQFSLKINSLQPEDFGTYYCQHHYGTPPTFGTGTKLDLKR" recorded_value="0.000164 s⁻¹"

Query :: # koff lookup, item F1.92.17 (antibody, human IgG1, kappa, V domains shown, Human-murine chimeric antibody) VH: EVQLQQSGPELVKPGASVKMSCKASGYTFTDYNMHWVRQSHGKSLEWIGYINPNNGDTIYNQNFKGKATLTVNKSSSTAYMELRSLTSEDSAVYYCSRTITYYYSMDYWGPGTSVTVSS VL: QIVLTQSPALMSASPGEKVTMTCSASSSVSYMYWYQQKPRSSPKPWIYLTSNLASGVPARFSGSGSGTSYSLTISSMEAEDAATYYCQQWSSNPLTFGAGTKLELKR
Result :: 0.00017 s⁻¹

Query :: # koff lookup, item F2.154.1 (antibody, human IgG1, kappa, V domains shown, Human-murine chimeric antibody) VH: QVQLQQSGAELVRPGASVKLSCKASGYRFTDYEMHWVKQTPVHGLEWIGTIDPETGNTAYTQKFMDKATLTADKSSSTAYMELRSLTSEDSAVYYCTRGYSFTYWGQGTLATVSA VL: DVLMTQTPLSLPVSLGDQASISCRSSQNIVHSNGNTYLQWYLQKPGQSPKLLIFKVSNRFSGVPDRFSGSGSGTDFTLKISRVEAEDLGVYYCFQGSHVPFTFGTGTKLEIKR
Result :: 0.000563 s⁻¹
